system: HSV-1; assay: HSV Antiviral (ELISA) Assay; type: cell-based, herpes simplex virus type 1; conditions: Human alphaherpesvirus 1; Vero cells, HSV-1, about 24 hours post-infection; read-out: IC50 (ug/ml) HSV
Hi there, I'd appreciate the recorded IC50 for every entry that follows.
Write the value in µg/mL as a bare number.

## Input Can you look up the measured IC50 of `COc1cc(OC)c(NC(=S)Nc2ccc(NC(=O)c3ccccc3C)nc2)cc1Cl` for me?
## Output 0.6

## Input And then `COc1cc(OC)c(NC(=S)Nc2ccc(NC(=O)c3ccccn3)nc2)cc1Cl` , what is it?
## Output 5

## Input And then `COc1cc(OC)c(NC(=S)Nc2ccc(NC(=O)c3ccccc3F)cn2)cc1Cl` , what is it?
## Output 10

## Input And then `COc1cc(OC)c(NC(=S)Nc2ccc(NC(=O)c3csnn3)cn2)cc1Cl` , what is it?
## Output 4
